Biological target: COX-1 (Ovis aries, UniProt P05979)
Construct: purchased Cayman chemical, MI, USA
Sequence (P05979 25-600): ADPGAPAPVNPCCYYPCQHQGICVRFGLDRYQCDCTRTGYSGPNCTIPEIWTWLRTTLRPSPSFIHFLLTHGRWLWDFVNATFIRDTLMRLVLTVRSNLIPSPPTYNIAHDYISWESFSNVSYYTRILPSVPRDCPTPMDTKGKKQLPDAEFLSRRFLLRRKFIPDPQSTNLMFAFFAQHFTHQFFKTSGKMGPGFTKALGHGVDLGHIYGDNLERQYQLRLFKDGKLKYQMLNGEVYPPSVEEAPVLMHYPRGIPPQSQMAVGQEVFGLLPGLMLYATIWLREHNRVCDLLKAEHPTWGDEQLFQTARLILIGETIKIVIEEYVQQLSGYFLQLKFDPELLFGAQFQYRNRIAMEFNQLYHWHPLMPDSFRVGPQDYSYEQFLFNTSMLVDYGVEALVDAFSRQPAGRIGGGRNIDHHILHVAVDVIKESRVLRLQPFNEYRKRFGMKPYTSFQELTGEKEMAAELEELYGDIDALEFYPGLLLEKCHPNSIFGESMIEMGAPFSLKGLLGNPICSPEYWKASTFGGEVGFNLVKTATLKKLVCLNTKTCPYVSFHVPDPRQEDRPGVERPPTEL
Assay: biochemical
Conditions: ovine COX-1/COX-2 assay kit; mean of two determinations, deviation < 10% of the mean
Procedure: In-vitro cyclooxygenase (COX) inhibition assays The assay was performed using an enzyme chemiluminescent kit (Cayman chemical, MI, USA) according to the previously reported method ([17]).
Kindly state IC50 for each of the entries shown.
One number for each entry, in µM.

Study these solved cases before continuing.
compound="CS(=O)(=O)c1ccc(C(=O)NC(Cc2ccc(O)cc2)C(=O)O)cc1 (stereo not drawn) [Compound 3c, p-MeSO 2 Bz -Tyr]" units=µM quantitative_result=25.2
compound="[N-]=[N+]=Nc1ccc(C(=O)NC(Cc2ccc(O)cc2)C(=O)O)cc1 (centres unmarked) [Compound 3d, p-N3Bz -Tyr]" units=µM quantitative_result=20.9

Would you be so kind as to report IC50 for each listed record?
1. [N-]=[N+]=Nc1ccc(C(=O)NC(Cc2ccccc2)C(=O)O)cc1 (centres unmarked) [Compound 1d, p-azidobenzoyl-phenylalanine]
2. [N-]=[N+]=Nc1ccc(C(=O)NC(Cc2c[nH]cn2)C(=O)O)cc1 (centres unmarked) [Compound 2d, p-N3Bz -His]
3. CS(=O)(=O)c1ccc(C(=O)NC(Cc2c[nH]c3ccccc23)C(=O)O)cc1 (stereo not drawn) [Compound 4c, p-MeSO2Bz -Trp]

// result
[55.5, 28.1, 16.6]

###

Molecular target: COX-2 (Ovis aries, UniProt P79208)
Construct: purchased Cayman chemical, MI, USA
Sequence (P79208 17-603): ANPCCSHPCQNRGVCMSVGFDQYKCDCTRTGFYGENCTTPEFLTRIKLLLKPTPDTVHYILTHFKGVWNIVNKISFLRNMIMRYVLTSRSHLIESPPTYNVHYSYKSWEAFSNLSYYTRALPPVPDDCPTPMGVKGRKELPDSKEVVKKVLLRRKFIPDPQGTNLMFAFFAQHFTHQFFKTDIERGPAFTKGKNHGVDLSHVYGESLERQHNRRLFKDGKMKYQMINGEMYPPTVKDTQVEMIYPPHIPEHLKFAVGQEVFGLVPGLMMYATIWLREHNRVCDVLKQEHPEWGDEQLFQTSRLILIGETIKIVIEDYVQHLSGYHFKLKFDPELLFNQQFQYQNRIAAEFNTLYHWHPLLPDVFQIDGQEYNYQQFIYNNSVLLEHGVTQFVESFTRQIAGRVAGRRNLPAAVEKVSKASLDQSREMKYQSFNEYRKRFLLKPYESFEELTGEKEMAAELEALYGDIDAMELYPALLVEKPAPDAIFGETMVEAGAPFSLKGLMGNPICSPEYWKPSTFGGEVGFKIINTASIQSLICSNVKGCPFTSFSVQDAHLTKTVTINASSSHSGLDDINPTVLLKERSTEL
Experiment: biochemical
Settings: ovine COX-1/COX-2 assay kit; mean of two determinations, deviation < 10% of the mean
I'd be grateful if you could share measured IC50 for these entries.
Numbers only, in µM.

compound="CS(=O)(=O)c1ccc(C(=O)NC(Cc2c[nH]c3ccccc23)C(=O)O)cc1 (stereo not drawn) [Compound 4c, p-MeSO2Bz -Trp]" quantitative_result=0.09
compound="[N-]=[N+]=Nc1ccc(C(=O)NC(Cc2c[nH]cn2)C(=O)O)cc1 (centres unmarked) [Compound 2d, p-N3Bz -His]" quantitative_result=0.08
compound="CS(=O)(=O)c1ccc(C(=O)NC(Cc2ccc(O)cc2)C(=O)O)cc1 (stereo not drawn) [Compound 3c, p-MeSO 2 Bz -Tyr]" quantitative_result=0.23

Now for a further compound.
Quick note, IC50 for [N-]=[N+]=Nc1ccc(C(=O)NC(Cc2ccc(O)cc2)C(=O)O)cc1 (centres unmarked) [Compound 3d, p-N3Bz -Tyr] landed at 10.1

###

Biological target: COX-2 (Ovis aries, UniProt P79208)
Construct: purchased Cayman chemical, MI, USA
Sequence (P79208 17-603): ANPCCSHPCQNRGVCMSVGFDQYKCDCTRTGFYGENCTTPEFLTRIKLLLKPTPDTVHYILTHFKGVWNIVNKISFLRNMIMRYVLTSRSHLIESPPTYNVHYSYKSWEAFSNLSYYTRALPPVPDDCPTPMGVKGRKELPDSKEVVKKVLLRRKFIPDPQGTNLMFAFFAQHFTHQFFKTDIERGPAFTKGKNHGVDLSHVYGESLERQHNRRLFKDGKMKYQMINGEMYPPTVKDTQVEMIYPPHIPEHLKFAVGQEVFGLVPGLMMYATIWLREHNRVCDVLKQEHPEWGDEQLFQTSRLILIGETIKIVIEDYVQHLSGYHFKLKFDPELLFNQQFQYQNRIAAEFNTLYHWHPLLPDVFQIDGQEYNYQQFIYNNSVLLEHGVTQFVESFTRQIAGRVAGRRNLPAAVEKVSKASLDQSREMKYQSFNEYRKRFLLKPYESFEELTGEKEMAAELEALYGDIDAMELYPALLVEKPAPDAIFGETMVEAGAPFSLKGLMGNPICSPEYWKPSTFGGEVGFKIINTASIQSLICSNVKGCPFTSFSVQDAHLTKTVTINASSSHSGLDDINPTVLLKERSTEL
Assay: biochemical
Details: COX-1 IC50/COX-2 IC50
Give S.I. In-vitro COX-2 selectivity index (COX-1 IC50/COX-2 IC50) for every item shown.
Give bare numbers.

Example entries begin here.
molecule="CS(=O)(=O)c1ccc(C(=O)NC(Cc2c[nH]c3ccccc23)C(=O)O)cc1 (stereo not drawn) [Compound 4c, p-MeSO2Bz -Trp]" quantitative_result=184.4
molecule="[N-]=[N+]=Nc1ccc(C(=O)NC(Cc2c[nH]cn2)C(=O)O)cc1 (stereo not shown) [Compound 2d, p-N3Bz -His]" quantitative_result=351.2
molecule="[N-]=[N+]=Nc1ccc(C(=O)NC(Cc2ccc(O)cc2)C(=O)O)cc1 (stereo not shown) [Compound 3d, p-N3Bz -Tyr]" quantitative_result=2.1

Let us move to another entry and its S.I. In-vitro COX-2 selectivity index (COX-1 IC50/COX-2 IC50).
Quick note, S.I. In-vitro COX-2 selectivity index (COX-1 IC50/COX-2 IC50) for CS(=O)(=O)c1ccc(C(=O)NC(Cc2ccc(O)cc2)C(=O)O)cc1 (stereo not drawn) [Compound 3c, p-MeSO 2 Bz -Tyr] landed at 109.6

###

Target: COX-1 (Ovis aries, UniProt P05979)
Construct: purchased Cayman chemical, MI, USA
Test: biochemical
Conditions: ovine COX-1/COX-2 assay kit; mean of two determinations, deviation < 10% of the mean
Hi there, I'd appreciate the recorded IC50 for every entry that follows.

molecule="CS(=O)(=O)c1ccc(C(=O)NC(Cc2cnc[nH]2)C(=O)O)cc1 (stereo not drawn)" experimental_system="COX-1 (Ovis aries, UniProt P05979)" result="> 100 µM"
molecule="CS(=O)(=O)c1ccc(C(=O)NC(Cc2ccccc2)C(=O)O)cc1 (stereo not drawn)" experimental_system="COX-1 (Ovis aries, UniProt P05979)" result="> 100 µM"

# context switch: different molecule, same IC50
Item: [N-]=[N+]=Nc1ccc(C(=O)NC(Cc2c[nH]c3ccccc23)C(=O)O)cc1 (stereo not drawn) | IC50: > 100 µM
